Reported IC50 values follow for various compounds
tested on: LoVo cells; test: LoVo cell proliferation assay (CellTiter-Glo); type: cell-based; conditions: Homo sapiens, LoVo, 120 h, LoVo cells, 2,000 cells per well, 5 days incubation, CellTiter-Glo; maximum concentration 10 µM, 9 concentrations; read-out: LoVo IC50

# Compound, Measurement Label, Test Value
rows = [
    ("CC1c2cc(N3CCOC[C@H]3C)nc3c2c(nn3-c2cc[nH]n2)CCN1S(=O)(=O)C1CC1 (single isomer, unassigned) [Compound 37A]", "IC50", "< 100 nM"),
    ("CC1c2cc(N3CCOC[C@H]3C)nc3c2c(nn3-c2cc[nH]n2)CCN1CC(F)F (single isomer, unassigned) [Compound 45A]", "IC50", "100 to 1000 nM"),
]

Next compound, please.
Task: Output measured IC50 for this item: C[C@@H]1COCCN1c1cc2c3c(n1)c(-c1cc[nH]n1)nn3CCC(=O)N2[C@@H](C)CC(F)(F)F [Compound 111A]
Result: 100 to 1000 nM
